B1: glmS ribozyme (parent)
chain: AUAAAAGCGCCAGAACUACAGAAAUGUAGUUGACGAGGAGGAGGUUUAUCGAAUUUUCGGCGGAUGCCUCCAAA

variants of: B1; assay: self-cleavage kobs at 640 uM GlcN6P; higher = faster cleavage; RNA array; conditions: with glucosamine-6-phosphate
Variants at the floor of the assay were thinned out.
Tick Fulfilled if self-cleavage kobs at 640 uM GlcN6P is 0.0005 s⁻¹ or greater. Tick Not fulfilled if self-cleavage kobs at 640 uM GlcN6P is less than 0.0005 s⁻¹.

[[record]]
monomer_sequence = "AUAAAAGCGCAAGAACUACAGAAAUGUAGUUGAUGAGGAGGAGGUUUAUCGAAUUUUCGGCGCAUGCCUCCAAA [C11A C34U G63C]"
classification = "Not fulfilled"

[[record]]
monomer_sequence = "AUAAAAGCGCCAGGGCUACAGAAAUGUAGUUGACGAGGAGGAGGUUUAUCGAAUUUUCGGCGGAUGCCUCCAAA [A14G A15G]"
classification = "Fulfilled"

[[record]]
monomer_sequence = "AUAAAAGCGCCAGAACUAAAGAAAUGUAGUUGUCGAGGAGGAGGUUUAUGGAAUUCUUGGCGUAUGCGUCCAAA [C19A A33U C50G U56C C58U G63U C68G]"
classification = "Fulfilled"

[[record]]
monomer_sequence = "AUAAAAGCGCCAGAACUACAGAAAUGUAGUUGACGAGGAGGAGGUUUACCGGAUUUUCGGCGGACGCCUCCAAA [U49C A52G U65C]"
classification = "Not fulfilled"

[[record]]
monomer_sequence = "AUAAAAACGCCAGAACUACAGAAAUGUAGUUGACGAGGAGGAGGUUUAUCGACUUUUCGGCGGAUGCCUCCAAA [G7A A53C]"
classification = "Not fulfilled"

[[record]]
monomer_sequence = "AUAAAAGGGCCAGGUCUACAGAAAUGUAGUUGACGAGGAGCAGGUUGAUCGAAUUAUCGGCGGAUGCCUCCAAA [C8G A14G A15U G41C U47G U56A]"
classification = "Not fulfilled"

[[record]]
monomer_sequence = "AUAAAAGCGCCAAAACUACAGAAAUGUAGUUGACGAGGAGGAGGUUUAUCGAAUUUUCGGCGGAUGCCUCUAAA [G13A C71U]"
classification = "Not fulfilled"

[[record]]
monomer_sequence = "AUAAAAGCGCCAGAACUACAGAAAUGUAGUUGACCAGGAGGAGGUUUAUUCAAUUUUCGGCGGAUGCCUCCAAA [G35C C50U G51C]"
classification = "Not fulfilled"

[[record]]
monomer_sequence = "AUAAAAGCGCCAGAAUUACAGAAAUGUAGUUGACGAGGAGGAAGUUUAUCGAAUUUUCGGCGGAUGGCUCCAAA [C16U G43A C67G]"
classification = "Not fulfilled"

[[record]]
monomer_sequence = "AUAAAAGCGCCAGAACUACAGAAAUGUAGUUGACGAGGAGGAGGUAUAUCGAAUUUUCGGCGGAUCCCUCCAAA [U46A G66C]"
classification = "Fulfilled"

[[record]]
monomer_sequence = "AUAAAAGCGCCAAUACUACAGAAAUGUAGUUGACGAGGAGGAGGUUUAUGGAAUUUUCGGCGGAUGCUUCCAAA [G13A A14U C50G C68U]"
classification = "Not fulfilled"

[[record]]
monomer_sequence = "AUAAAAGCGCCAGAACUACAGAAAUGUAGUUGACGAGGAGGAGGAUUAUCCAAUUUUCGACGGAUGCCUCUAAA [U45A G51C G60A C71U]"
classification = "Not fulfilled"

[[record]]
monomer_sequence = "AUAAAAGUGCCAGAACUACAGAAAUGUAGUUGACGAGGAGGAGGUUUAUCGAAUUUUCUGCGCAUGCCUCCAAA [C8U G59U G63C]"
classification = "Not fulfilled"

[[record]]
monomer_sequence = "AUAAAAGCGCCCGAACUACAGAAAUGUAGUUGACGAGGAGGAGGUUUAUCGAUUUUUCGGCGGAUGCCUCCAAA [A12C A53U]"
classification = "Fulfilled"

[[record]]
monomer_sequence = "AUAAAAGCGCCAGAACUACAGAAAUGUAUUUGUCGAGGAGGAGGUUUAUCGAAUUAUCGGCGGGUGCCUCCAAA [G29U A33U U56A A64G]"
classification = "Not fulfilled"

[[record]]
monomer_sequence = "AUAAAAGCGCCAGAACUACAGAAAUGUAGUUGACGAGGAGGAGGUUUAUCUAUUUUUCGGCGGAUGCCUCCAAA [G51U A53U]"
classification = "Not fulfilled"

[[record]]
monomer_sequence = "AUAAAAGCGCCGUAACUACAGAAAUGUAGUUGACGAGGAGGAGGUUGAUCGAUUUUUCGGCGGAUACCUCCAAA [A12G G13U U47G A53U G66A]"
classification = "Not fulfilled"

[[record]]
monomer_sequence = "AUAAAAGCGCCAGAAUUACAGAAAUGUAGUUGACAAGGAGGAGGUUUAUCGAAUUUUCGGCGGAUGCCUCCAAA [C16U G35A]"
classification = "Not fulfilled"

[[record]]
monomer_sequence = "AUAAAAGCGCCAGAAGUACAGAAAUGUAGUUGACGAGGAGGAGGUUUAUCGAAUUUUCGGCGGAUGCCGCCAAA [C16G U69G]"
classification = "Not fulfilled"

[[record]]
monomer_sequence = "AUAAAAGCGCCAGAACUACAGAAAUGUACUUGACGAGUAGGAGGUUUCUCGAAUUUUCGGCGGAUGCCUCCAAA [G29C G38U A48C]"
classification = "Not fulfilled"

[[record]]
monomer_sequence = "AUAAAAGCGCCUGAACUACAGAAAUGUAGCUGACGAGGAGGAGGUUUAUCGAAUUUUCGGCGGAUGCCUCCAAA [A12U U30C]"
classification = "Fulfilled"

[[record]]
monomer_sequence = "AUAAAAGCGCCAGAACUACAGAAAUGUAGUUGACGAGGAGGAGGUUUAUCGAAUUUACGGCGGAUGCCUCUAAA [U57A C71U]"
classification = "Not fulfilled"

[[record]]
monomer_sequence = "AUAAAAGCGCCAGAACUACAGAAAUGUAGUUGACGAGGAAGAAGUUUAUCGAAUUUUCGGCGGAUGCCUCCAAA [G40A G43A]"
classification = "Not fulfilled"

[[record]]
monomer_sequence = "AUAAAAGCGCUAGAACUACAGAAAUGUAGUUGACGAGGAGGAGGUUAAUCGAGUUAUCGGCGGAUGCCUGCAAA [C11U U47A A53G U56A C70G]"
classification = "Not fulfilled"

[[record]]
monomer_sequence = "AUAAAAGCGCCAGAACUACAGAAAUGUAGUUGACCAGGAGGAGGUCUAUCGAAUUUUCGGCGGAUGCCUCCAAA [G35C U46C]"
classification = "Not fulfilled"

[[record]]
monomer_sequence = "AUAAAAGCGCCAGAACUACAGAAAUGUAGUAGACGAGAAGGCGGUUUAUCGAAUUUUCGGCGGAUGCCUCCAAA [U31A G38A A42C]"
classification = "Not fulfilled"

[[record]]
monomer_sequence = "AUAAAAGCGCCAGAACUACAGAAAUGUAGAUGACGAGGAGGAGGUUUAUCGAAUUUUCGGCAGAUGCCUCCAAA [U30A G62A]"
classification = "Not fulfilled"

[[record]]
monomer_sequence = "AUAAAAGCGCCAGAACUACAGAAAUGUAGUUGACGACGAGGAGGUUUAUCGAAUUUUCGGCGGAAGCCUCCAAA [G37C U65A]"
classification = "Not fulfilled"

[[record]]
monomer_sequence = "AUAAAAGCGGCAGACCUACAGAAAUGUAGUUGACGUGGAGGAGGUUUAUCGAAUUUUCGGCGGAUGCCUCCAAA [C10G A15C A36U]"
classification = "Not fulfilled"

[[record]]
monomer_sequence = "AUAAAAGCGCCAGAACUACAGAAAUGUAGUUGACGAGGAGGAGGUUCAUCGAAUUUUCGUCGGAUGCCUCCAAA [U47C G60U]"
classification = "Not fulfilled"

[[record]]
monomer_sequence = "AUAAAAGCGCCAGAACUACAGAAAUGUAGUUGACGAGGAGGAGCUUCAUCGAGUUUUCGGCGGAUGCCUCCAAA [G44C U47C A53G]"
classification = "Not fulfilled"

[[record]]
monomer_sequence = "AUAAAAGCGCCAGAACUACAGAAAUGUAAUCGAUGAGGAGGAGGUUUAUCGAAUUUUCGGCGGAUGCCUCCAAA [G29A U31C C34U]"
classification = "Not fulfilled"

[[record]]
monomer_sequence = "AUAAAAGCGCCAGAACUACAGAAAUGUAGUUGACGAGGAGGAGGUUCAUCGAAUUUUCGGCGGAUGCCUACAAA [U47C C70A]"
classification = "Not fulfilled"

[[record]]
monomer_sequence = "AUAAAAGCGCCCGAACUACAGAAAUGUAGAUGACGAGGAGGAGGUUUAUCGAAUUAUCGGCGGAUGCCUCCAAA [A12C U30A U56A]"
classification = "Not fulfilled"

[[record]]
monomer_sequence = "AUAAAAGCGCCAGAACUACAGAAAUGUAGUUGACGAGGACGAGGUUUAUCGAAUUAUCGGCGGAUGCCUCCAAA [G40C U56A]"
classification = "Not fulfilled"

[[record]]
monomer_sequence = "AUAAAAGCGCCCGAACUACAGAAAUGUAGUUGACGAGGAGGAGGUUUAUCGAAUUUUCGGCGGAGGCCUCCAAA [A12C U65G]"
classification = "Fulfilled"

[[record]]
monomer_sequence = "AUAAACGCGCCAGAACUACAGAAAUGUAGUUGACGAGAAGGAGGUUUAUGGAAUUUUCGGCGGAUGUCUCCAAA [A6C G38A C50G C67U]"
classification = "Not fulfilled"

[[record]]
monomer_sequence = "AUAAAAGCGCCAUAACUACAGAAAUGUAGUUAACGGGUAGGAGGUUUAUCGAAUUUUCGGCGGAUGCCUCCAAA [G13U G32A A36G G38U]"
classification = "Not fulfilled"

[[record]]
monomer_sequence = "AUAAAAGCGCCAGAACUACAGAAAUGUAGGUGACGAGGAGGAGGUUUAUCGAGUUUUCGGCGGAUGUCUCCAAA [U30G A53G C67U]"
classification = "Fulfilled"

[[record]]
monomer_sequence = "AUAAAAGCGCCAGAACUACAGAAAUGUAUUUGACGAGGAGGAGGUUUAUCGAAUUUUCGGCGGAUGCUUCCAAA [G29U C68U]"
classification = "Not fulfilled"

[[record]]
monomer_sequence = "AUAAAAGCACCAGAACUACAGAAAUGUAGUUGCCGAGGAGGAGGUUUAUCGAAUUUUCGGCGGAUGCCUCCAAA [G9A A33C]"
classification = "Not fulfilled"

[[record]]
monomer_sequence = "AUAAAAGAGCCCGAACUACAGAAAUGUAGUUGACGAGGAGGAGGUUUAUCGAAUUUUCGGCGGAUGCCUCCAAA [C8A A12C]"
classification = "Not fulfilled"

[[record]]
monomer_sequence = "AUAAAAGCGCCAGAACUACAGAAAUGUAGUCGACGAGGAGGAGGUCUAUCGAAUUUUCGGCGGAUGCCUCCAAA [U31C U46C]"
classification = "Not fulfilled"

[[record]]
monomer_sequence = "AUAAAAGCGCCUGAACUACAGAAAUGUAGUUGACGAGGAGGAGGUUUAUUGAAUUUUCGGCGGAUGCCUCCAAA [A12U C50U]"
classification = "Not fulfilled"

[[record]]
monomer_sequence = "AUAAAAGCGCCAGAACUACAGAAAUGUAGUUGACUAGGAGGAGGUUUAUCGAAAUUUCGGCGGAUGCCUCCAAA [G35U U54A]"
classification = "Not fulfilled"

[[record]]
monomer_sequence = "AUAAAAGCGCCAGAACUACAGAAAUGUAGUUGACGAGGCGGAGGUUUAUCGAAUUUUCGGCGGAUGCCGCCAAA [A39C U69G]"
classification = "Not fulfilled"

